- ASSAY: Salt/co-crystal screening: 38 acids, eight solvent systems, solids analysed by XRPD
- Format: physicochemical
- RUN CONDITIONS: Toluene; acid/freebase charge 1:1 unless label says 2:1; stirred at RT, else 5° C. slurry, anti-solvent addition or evaporation (footnote marks)
ASSAY METRIC: Solid obtained in salt screening (XRPD), solvent E Toluene

Solved cases below.
O=C(O)/C=C/c1ccccc1 [trans Cinnamic acid]    gel
CCCCCC(=O)O    gel
O=C(O)CCCC(=O)O    gel*
O=C(O)/C=C\C(=O)O    gel*
COc1cc(C(=O)O)ccc1O    gel

State the recorded Solid obtained in salt screening (XRPD), solvent E Toluene for every item in the following list.
1. O=C(O)[C@H](O)[C@@H](O)[C@H](O)[C@H](O)CO
2. O=C(O)CC(=O)O

[reply]
1: gel; 2: gel*
